From: patent US20150329642A1

molecular target: T1, cMetECDHis (human, UniProt P08581 25-932, limits assumed, biotinylated in the cross-block ELISA of Example 17); assay: cross-block ELISA; competitor 062
T1 construct: Expressed in HEK-293F cells; also called soluble cMetECDHis; biotinylated cMetECDHis
MEASUREMENT LABEL: residual binding, % of no competitor (%)
Numbers only, in %.

>  <BINDER>
IgG1-024 (antibody, V domains shown, also called TH1016-024; PC1016-024) VH: EVQLLESGGGLVQPGGSLRLSCVASGFTFSSYAMSWVRQAPGKGLEWVSAISGSSGGSTYYVDSVKGRFTISRANSKNTLYLQMNSLRAEDTAVYYCAKDLDRGWMGYFGYWGQGTLVTVSS VL: DIQMTQSPSSVSASVGDRVTITCRASQGISSWLAWYQHKPGKAPKLLIYAASSLQSGVPSRFSGSGSGTDFTLTISSLQPEDFATYYCQQANSFPTFGQGTRLEIK

>  <residual binding, % of no competitor [%]>
2.3

$$$$
>  <BINDER>
anti-c-Met HuMab 098 (IgG1) (antibody, V domains shown, also called TH1016-098; PC1016-098) VH: QVQLVQSGAEVKKPGASVKVSCKASGYTFTNFGISWVRQAPGQGLEWMGWISAFNGHTDYSQKVQGRVTMTTDTSTSTAYMELRSLRSDDTAVFYCARSHYYGSGSPFDYWGQGTLVTVSS VL: DIQMTQSPSSLSASVGDRVTITCRASQGISNWLAWYQQKPEKAPKSLIYAASSLQSGVPSRFSGSGSGTDFTLTISSLQPEDFATYYCHQYKSYPWTFGQGTKVEIK

>  <residual binding, % of no competitor [%]>
8.8

$$$$
>  <BINDER>
anti-c-Met HuMab 181 (IgG1) (antibody, V domains shown, also called TH1016-181; PC1016-181) VH: QVQLVQSGAEVKKPGASVKVSCKASGYTFTSYGISWVRQAPGQGLEWMGWISTYNGYTNYAQKLQGRVTMTTDTSTSTAYMELRSLRSDDTAVYYCARDLRGTAYFDYWGQGTLVTVSS VL: DIQMTQSPSSVSASVGDRVTITCRASQGISNWLAWYQHKPGKAPKLLIYAASSLLSGVPSRFSGSGSGTDFTLTISSLQPEDFATYYCQQANSFPITFGQGTRLEIK

>  <residual binding, % of no competitor [%]>
2

$$$$
>  <BINDER>
anti-c-Met HuMab 035 (IgG1) (antibody, V domains shown, also called P1016-035; TH1016-035-D09) VH: EVQLVQSGAEVKKPGESLKISCKGSGYSFTSYWIGWVRQMPGKGLEWMGIIYPGDSDTRYSPSFQGQVTISADKSISTAYLQWNSLKASDTAMYYCARQEITGEFDYWGQGTLVTVSS VL: AIQLTQSPSSLSASVGDRVTITCRASQGISSALAWYQQKPGKAPKLLIYDASSLESGVPSRFSGSGSGTDFTLTISSLQPEDFATYYCQQFNSYPMYTFGQGTKLEIK

>  <residual binding, % of no competitor [%]>
120

$$$$

Turning now to a further record.
Lookup: Endpoint output: residual binding, % of no competitor of anti-c-Met HuMab 005 (IgG1) (antibody, V domains shown, also called TH1016-005; PC1016-005) VH: QVQLVQSGAEVKKPGSSVKVSCKASGGTFSSYGFGWVRQAPGQGLEWMGRISPILGIANYAQMFQGRVTITADKSTSTAYMELSSLRSEDTAVYYCARDVGYDWPDTFDIWGQGTMVIVSS VL: DIQMTQSPSSLSASVGDRVTITCRASQGISSWLAWYQQKPEKAPKSLIYAASSLQSGVPSRFSGGGSGTDFTLTISSLQPEDFATYYCQQYNSFPPTFGQGTKVEIK . Value?
Found: 118
